Consider the following binders; for each one, report its IC50, Tau40 assay (ThT).
# assayTarget: Tau40 P301L protein (human)
# assayName: cell-based or functional assay
Square brackets hold non-standard residues; d marks the D form. Ends that are not written are not given here.
Give bare numbers, in nM.

Known results for binders:
[dW][dR][dL][dR][dI][dH][dM] [wrlrihm (PEPTIDE ID NO: 453)]
580
[dL][dK][dI][dR][dI][dH][dY] [lkirihy (PEPTIDE ID NO: 245)]
1040
[dW][dR][dL][dR][dI][dW][dW] [wrlriww (PEPTIDE ID NO: 103)]
1980
[dL][dE][dI][dR][dI][dH][dY] [leirihy (PEPTIDE ID NO: 316)]
2430
[dW][dL][dR][dV][dQ][dV][dK][dL][dW] [wlrvqvklw (PEPTIDE ID NO: 416)]
1110

Return reported IC50, Tau40 assay (ThT) values for all items listed beneath this line.
1. [dK][dL][dK][dL][dR][dW][dF] [klklrwf (PEPTIDE ID NO: 438)]
2. [dL][dK][dI][dR][dI][dH][dL][dH] [lkirihlh (PEPTIDE ID NO: 240)]
3. [dW][dR][dL][dW][dV][dR][dW][dW] [wrlwvrww (PEPTIDE ID NO: 310)]
4. [dL][dK][dI][dR][dI][dA][dY] [lkiriay (PEPTIDE ID NO: 271)]
5. [dR][dT][dL][dK][dI][dV][dW][dR] [rtlkivwr (PEPTIDE ID NO: 22)]
6. [dW][dE][dL][dR][dI][dH][dW] [welrihw (PEPTIDE ID NO: 322)]
7. [dW][dR][dL][dK][dE][dR][dW][dW] [wrlkerww (PEPTIDE ID NO: 241)]

[1670, 1000, 2230, 1480, 1670, 2580, 1010]
